Provenance of the data: the supplement of paper PMC9112550

System: Escherichia coli TOP10;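 note: peptides expressed intracellularly from a pBAD plasmid library in pooled LB shake-flask culture, induced with 0.3% L-arabinose, DNA abundance read by NGS, three biological replicates, DESeq2 with apeglm shrinkage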
experiment.summary: shrunken log2 fold change of peptide-encoding DNA abundance (4.5 h post-induction vs induction); higher = less antimicrobial activity (less host growth inhibition)
condition.parameters: time post-induction: 4.5 h; library: site-saturation at positions 5, 18, 19, 20
Returns one of y or n; y when shrunken log2 fold change is >= 0.1.

sequence.string	label.value
RRIRQRPPRLPRPRPRPQYWPRP	n
RRIRLRPPRLPRPRPRPNGLPRP	n
RRIRWRPPRLPRPRPRPLPCPRP	y
RRIRIRPPRLPRPRPRPKKEPRP	n
RRIRWRPPRLPRPRPRPNRPPRP	n
RRIRVRPPRLPRPRPRPQWEPRP	n
RRIRSRPPRLPRPRPRPLRKPRP	y
RRIRTRPPRLPRPRPRPTLWPRP	y
RRIRYRPPRLPRPRPRPMGVPRP	n
RRIRRRPPRLPRPRPRPLPVPRP	y
RRIRKRPPRLPRPRPRPGLPPRP	y
RRIRMRPPRLPRPRPRPSITPRP	n
RRIRWRPPRLPRPRPRPTGPPRP	y
RRIRERPPRLPRPRPRPKWEPRP	n
RRIRNRPPRLPRPRPRPQKNPRP	n
